- assay comment: luciferase-based ADP detection interference – biochemical, luminescence, cell-free, homogeneous, artefact control for GSK-3a inhibitor project, dose response (AID 463205);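 further: kinase-free counter-screen against the ADP-Glo detection reagents only; potency is for inhibitors that reduce the luminescence signal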
- run conditions: Cell-free ADP-Glo detection reagents, 5 uM ADP
Screen size: about 2,400 compounds; about 20 (0.8%) were called active.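 How the source made its calls: active means AC50 no more than ten times the highest tested concentration, or full inhibition at every dose giving a flat fit (cut at about 30 µM in these data); inconclusive means flat fit with activity between 30% and 70%, or poor-quality invalid fit; inactive means AC50 more than ten times the top tested dose.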 Shown is part of a subset that was picked to be rich in actives.
Allowed answers: TRUE for active, FALSE for inactive

// known answers, use as guide
Kindly provide the recorded test outcome for the following molecule: Cc1nc2sc3c(c2c(=O)o1)CC(C)(C)OC3
FALSE

Assay result, entry Nc1c(S(=O)(=O)c2ccccc2)nnn1-c1ccccc1 — outcome?
FALSE

Called result for Nc1nonc1-n1nnc(C(=O)N/N=C/c2ccncc2)c1CSc1ccc(Cl)cc1
FALSE

Shifting focus to the molecule that follows.
Give the logged outcome of this assay for the following molecule: CCc1c(C)c(C#N)c2nc3ccccc3n2c1NC
FALSE

---

- assay comment: luciferase-based ADP detection interference – biochemical, luminescence, cell-free, homogeneous, artefact control for GSK-3a inhibitor project, dose response (AID 463205)
- run conditions: Cell-free ADP-Glo detection reagents, 5 uM ADP
About 20 (0.8%) of roughly 2,400 compounds were called active.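 The calls were made as follows: active = AC50 no more than ten times the highest tested concentration, or full inhibition at every dose giving a flat fit (cut at about 30 µM in these data); inconclusive = flat fit with activity between 30% and 70%, or poor-quality invalid fit; inactive = AC50 more than ten times the top tested dose.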 This is one part of a sample in which actives are shown more often than they occur.
In this exercise, the only acceptable responses are active, inactive

Use the examples below as a reference point.
What call does the record list for COC1(OC)N=C(N)C2(C#N)C(c3ccc4c(c3)OCO4)C12C#N (stereo unspecified) ?
inactive

Any idea what this test logged for COc1ccccc1/C=N/NC(=O)c1nnn(-c2nonc2N)c1-c1cccs1 ?
inactive

Hi, do you know how Nc1nc2n(n1)C(c1ccc(F)cc1)CC(c1ccc(F)cc1)N2 (stereo unspecified) came out in this test?
inactive

Continuing:
Call for entry CCn1c(C)nc2cc(-c3nc4n(n3)Cc3ccccc3-4)ccc21 :
active

For CC(C)c1cc(C(N)=O)c(NC(=O)C2CCC2)s1 , which call appears in the assay record?
inactive

Per the records of this test, what outcome belongs to COc1ccc(/C=C2\Oc3cc(OCC(=O)N4CC(O)C[C@H]4C(=O)O)ccc3C2=O)c(OC)c1OC (stereo partly specified) ?
inactive

Give the logged outcome of this assay for the following molecule: COc1ccc(/C=C2\Oc3cc(OCC(=O)N4CC(O)C[C@H]4C(=O)O)ccc3C2=O)cc1OC (stereo partly specified)
inactive

Record request — test call for CN(c1nc2nonc2nc1NC1CC1)C1CCOC1 (stereo unspecified)
inactive

Dear colleague, could you share the recorded outcome for CCNc1nc(NCC)nc(C(=O)OCCO)n1 when you have a moment?
inactive

Hey, what did the test say about O=C(CCN1CCOCC1)Nc1cccc(Br)c1 ?
inactive

Each molecule tested received a call. Report the one for Cc1ccc(-c2nc3n(n2)Cc2ccccc2-3)cc1 .
inactive

---

- assay comment: luciferase-based ADP detection interference – biochemical, luminescence, cell-free, homogeneous, artefact control for GSK-3a inhibitor project, dose response (AID 463205)
- run conditions: Cell-free ADP-Glo detection reagents, 5 uM ADP
The campaign covered roughly 2,400 compounds. About 20 (0.8%) were called active.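 How the source made its calls: active means AC50 no more than ten times the highest tested concentration, or full inhibition at every dose giving a flat fit (cut at about 30 µM in these data); inconclusive means flat fit with activity between 30% and 70%, or poor-quality invalid fit; inactive means AC50 more than ten times the top tested dose.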 This is one part of a sample in which actives are shown more often than they occur.
Write down the outcome that applies. Available outcomes: active, inactive

These solved cases illustrate the format of a correct answer.
Status in this test for COc1ccc(CNc2ccc3cn[nH]c3c2)c(OC)c1OC ?
inactive

// outcome(item) with item = COc1ccc(/C=C/c2nc3ccccc3n2C)cc1
active

New cases:
How did this test come out for Nc1nonc1-n1nnc(C(=O)N/N=C/c2ccccc2Cl)c1-c1ccccc1 ?
inactive

Each compound tested received a call. Report the one for O=c1cc(-c2ccsc2)oc2ccccc12 .
inactive

Record lookup: outcome of this test for CN(C)Cc1c(C(=O)N/N=C/C2CC=CCC2)nnn1-c1nonc1N (centres undefined) ?
inactive

Record request — test call for O=C(COC(=O)c1ccc(F)cc1F)Nc1ccc(Cl)cn1
inactive

Dear all, I need the recorded test outcome for Cc1sc2ncnc(N3CCC(C(=O)Nc4ccc(C#N)cc4)CC3)c2c1C , thank you.
inactive

What outcome does the record of this test show for CC(OC(=O)Cc1c[nH]c2ccccc12)C(=O)c1ccccc1 (centres undefined) ?
inactive

Look up the recorded call for O=C(CSc1nnc(-c2ccncc2)s1)Nc1ccccc1 in this test.
inactive

Hello, I am checking results. What call was entered for COc1cccc(/C=N/n2nnnc2N)c1OCC#N ?
inactive

Which outcome did this test record for the compound O=C(c1ccc(Cl)cc1)c1cnc(Nc2ccccc2)s1 ?
inactive

Could you please tell me the result logged for COc1ccccc1OCC(=O)Nc1sc2c(c1C(N)=O)CCC2 in this assay?
inactive

Assay result, entry Cn1c(N=Nc2ccccc2)nc2ccccc21 — outcome?
active

Test call, this compound: O=C1CC(c2cccs2)CC2=C1C(c1ccccc1)n1ncnc1N2 (centres undefined)
inactive

Call for entry C=CCSc1ncnc2c1oc1nc3c(cc12)COC(C)(C)C3 :
inactive

Hey, what did the test say about COc1c2ccccc2nc2ccccc12 ?
inactive

Given CC(=O)Nc1ccc(C2(c3ccc(NC(C)=O)cc3)NC(=O)c3ccccc32)cc1 , state the outcome it received in this test.
inactive

State the result this test recorded for N#Cc1c(NC(=O)CSc2n[nH]c(N)n2)oc(-c2ccccc2)c1-c1ccccc1 .
inactive

---

- assay comment: luciferase-based ADP detection interference – biochemical, luminescence, cell-free, homogeneous, artefact control for GSK-3a inhibitor project, dose response (AID 463205);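 further: kinase-free counter-screen against the ADP-Glo detection reagents only; potency is for inhibitors that reduce the luminescence signal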
- run conditions: Cell-free ADP-Glo detection reagents, 5 uM ADP
Hit rate of the full screen: of about 2,400 compounds, about 20 (0.8%) were called active.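 How the source made its calls: active means AC50 no more than ten times the highest tested concentration, or full inhibition at every dose giving a flat fit (cut at about 30 µM in these data); inconclusive means flat fit with activity between 30% and 70%, or poor-quality invalid fit; inactive means AC50 more than ten times the top tested dose.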 For the sample, actives were picked, then their nearest neighbours and some compounds at random.
Choose one outcome from this list and give only that: T for active, F for inactive

Answer briefly: the call reported for CCC/C(=N/NC(=O)c1nnn(-c2nonc2N)c1CN1CCCCC1)c1ccccc1 in this assay.
F

What call does the record list for CCOC(=O)c1c(NC(=O)CN2C(=O)NC3(CCCCC3C)C2=O)sc(C)c1CC (stereo not given) ?
F

Call for entry CCOc1ccc(S(=O)(=O)Nc2cccc(C(=O)NCCCn3ccnc3)c2)cc1 :
F

---

- assay comment: luciferase-based ADP detection interference – biochemical, luminescence, cell-free, homogeneous, artefact control for GSK-3a inhibitor project, dose response (AID 463205);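 further: kinase-free counter-screen against the ADP-Glo detection reagents only; potency is for inhibitors that reduce the luminescence signal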
- run conditions: Cell-free ADP-Glo detection reagents, 5 uM ADP
About 20 (0.8%) of roughly 2,400 compounds were called active. The sample holds actives, similar compounds and a random draw of the others, so the mix is not that of the screen.
experimental readout: AC50

Return reported AC50 values for all items listed beneath this line.
1. Nc1nccnc1C(=O)N/N=C/c1ccco1
2. CCCCN(CC)C(=O)c1oc2ccc(S(=O)(=O)N3CCCC3)cc2c1C
3. COc1ccc(/C=C/c2nc(N)nc(-c3ccccc3O)n2)cc1
4. Cc1cc(=O)[nH]c2cc(O)ccc12
5. CCOC(=O)N1CCc2c(sc3[nH]c(=S)[nH]c(=S)c23)C1
6. O=C1c2cnc3nc(SCc4ccccc4)nn3c2CC2c3ccccc3CCN12 (stereo unspecified)

> 30 µM (inactive)
> 30 µM (inactive)
> 30 µM (inactive)
> 30 µM (inactive)
> 30 µM (inactive)
> 30 µM (inactive)

---

- assay comment: luciferase-based ADP detection interference – biochemical, luminescence, cell-free, homogeneous, artefact control for GSK-3a inhibitor project, dose response (AID 463205);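 further: kinase-free counter-screen against the ADP-Glo detection reagents only; potency is for inhibitors that reduce the luminescence signal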
- run conditions: Cell-free ADP-Glo detection reagents, 5 uM ADP
About 20 (0.8%) of roughly 2,400 compounds were called active.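 How the source made its calls: active means AC50 no more than ten times the highest tested concentration, or full inhibition at every dose giving a flat fit (cut at about 30 µM in these data); inconclusive means flat fit with activity between 30% and 70%, or poor-quality invalid fit; inactive means AC50 more than ten times the top tested dose.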 This excerpt belongs to a sample that is enriched for actives.
Hello, when you answer, please use one of the following outcomes: active, inactive

Test call for this compound, please: Cc1nc2c(C)cccn2c1/C(O)=C1\C(=O)C(=O)N(CCN2CCOCC2)C1c1cccs1 (configuration not stated)
inactive

Test call for this compound, please: O=[N+]([O-])c1cc(S(=O)(=O)N2CCCCC2)ccc1NCCCN1CCOCC1
inactive

Call for entry O=C(O)COc1c(Cl)cc(/C=C2/NC(=O)NC2=O)cc1Br :
inactive

Status in this test for Cc1cc(NC(=O)CCSc2nc(-c3ccco3)cc(C(F)(F)F)n2)n(-c2ccccc2)n1 ?
inactive

So what was the verdict on CCOC(=O)c1cnc2c(Cl)c(Cl)ccc2c1N1CCN(C)CC1 in this test?
inactive

Entry O=C(c1ccc2c3n(nc2c1)-c1ccc(Cl)cc1CO3)N1CCOCC1 : call = ?
inactive

Could you check what this test reported for CC(=O)Nc1cccc(-c2csc(Nc3ccc(C)cn3)n2)c1 ?
inactive

I would be grateful if you could indicate the recorded call for Cc1cc(NC(=O)COC(=O)c2cc(S(=O)(=O)N3CCOCC3)ccc2N2CCCCC2)no1 .
inactive

More entries:
In this assay, the call recorded for COc1ccc(-c2cc(C(=O)N3CCN(c4ccccc4)CC3)no2)cc1OC was what?
inactive

Which outcome was assigned to CCN(CC)C(=O)c1oc2ccc(S(=O)(=O)N3CCCCCC3)cc2c1C in this test?
inactive

# lookup: test call for O=[N+]([O-])c1cc(S(=O)(=O)c2ccc(N3CCCCC3)c([N+](=O)[O-])c2)ccc1N1CCCCC1
inactive

Data provenance is PubChem BioAssay AID463205.
